Parameter TGI: see the listing below.
System: KM12 colon
measurement-protocol: NCI tumour cell line growth inhibition, 48 h
measurement-type: TGI

[[record]]
compound = "O=C1Cc2c([nH]c3ccc(C(=O)O)cc23)-c2ccccc2N1"
observed = "> 100 µM"

[[record]]
compound = "CN=C(Nc1cccc(C(F)(F)F)c1)SCc1ccc(N=C=S)cc1"
observed = "29.3 µM"

[[record]]
compound = "CCOC(=O)Cn1nnc2ccc(Nc3nc4ccccc4nc3-c3ccccc3)cc21"
observed = "> 100 µM"

[[record]]
compound = "Cc1ccc(NC(=O)C(=O)C(C(=O)/C=C/c2ccccc2)C2OC(=O)c3ccccc32)c(C)c1 (stereo not given)"
observed = "> 100 µM"

[[record]]
compound = "COc1ccc(CNc2cc(=O)n(C)c(=O)[nH]2)cc1"
observed = "> 100 µM"

[[record]]
compound = "C/C(=N\\O)c1cccc(Nc2cc(-n3ccnc3)c3ccccc3n2)c1"
observed = "31.8 µM"

[[record]]
compound = "CSc1c(C#N)c(N)n(-c2ccc(Cl)cc2)c(=O)c1C#N"
observed = "> 100 µM"

[[record]]
compound = "C=C(C)[C@@H]1CC[C@]2(C(=O)OC)CC[C@]3(C)[C@H](CC[C@@H]4[C@@]5(C)CC[C@H](O)C(C)(C)[C@@H]5CC[C@]43C)[C@@H]12"
observed = "> 100 µM"

[[record]]
compound = "COc1cc2ncc3c(nc4sccn43)c2cc1OC"
observed = "> 100 µM"

[[record]]
compound = "C[n+]1c2ccccc2nc2c(N)cc(N)cc21"
observed = "> 100 µM"

[[record]]
compound = "N#CCCC1(CCC#N)CCCCCCCCC(CCC#N)(CCC#N)C(O)C1O (stereo not given)"
observed = "> 100 µM"

[[record]]
compound = "CCOC(=O)C1CCCCN1C(=O)Cc1c[nH]c2ccccc12 (stereo not given)"
observed = "> 100 µM"

[[record]]
compound = "CN1CCN(CCCCCN=c2cc3c(=O)n(CCCCCN4CCN(C)CC4)c(=O)c4c(NCCCCCN5CCN(C)CC5)cc5c(O)n(CCCCCN6CCN(C)CC6)c(=O)c2c5c4-3)CC1"
observed = "8.39 µM"

[[record]]
compound = "COc1cc(C(=O)c2cc(C)c3[nH]c4ccc(O)cc4c3c2C)cc(OC)c1OC"
observed = "23.8 µM"

[[record]]
compound = "O=C(O)CCNS(=O)(=O)c1ccc([N+](=O)[O-])cc1"
observed = "> 100 µM"

[[record]]
compound = "O=C(NCCNCCO)c1cccc2ccc(-c3ccccc3)nc12"
observed = "18.3 µM"

[[record]]
compound = "O=C(O)c1ccccc1N=Nc1c(O)c(S(=O)(=O)O)cc2cc(S(=O)(=O)O)ccc12"
observed = "> 100 µM"

[[record]]
compound = "O=C(c1ccco1)N(C(=O)N1CCN(c2ccccc2)CC1)S(=O)(=O)c1ccccc1"
observed = "> 100 µM"

[[record]]
compound = "COc1ccc(-c2cc(=O)c3c(O)cccc3o2)c(OC)c1OC"
observed = "> 100 µM"

[[record]]
compound = "COc1cc(/C=C/c2ccc3c(Br)cc(Br)c(O)c3n2)ccc1O"
observed = "13.2 µM"


* * *

Test system: SK-OV-3 ovarian
measurement-protocol: NCI tumour cell line growth inhibition, 48 h
Parameter TGI: see the listing below.
measurement-type: TGI

[[record]]
chemical_smiles = "Cc1cc2c(cc1C)[n+](=O)c(C(=O)c1ccccc1)c(C(F)(F)F)n2[O-]"
target = "SK-OV-3 ovarian"
measurement_type = "TGI"
observed = "> 28.8 µM"

[[record]]
chemical_smiles = "COc1ccc2c3c1O[C@H](c1ccc(O)cc1)[C@H]3[N+](C)(C)CC2"
target = "SK-OV-3 ovarian"
measurement_type = "TGI"
observed = "> 100 µM"

[[record]]
chemical_smiles = "O=C1Cc2c([nH]c3ccc(C(=O)O)cc23)-c2ccccc2N1"
target = "SK-OV-3 ovarian"
measurement_type = "TGI"
observed = "> 100 µM"

